STUDY SYSTEM: Rat recombinant TRPA1 (Rattus norvegicus, UniProt Q6RI86)
Construct: expressed in transfected cells
Sequence (Q6RI86 whole entry): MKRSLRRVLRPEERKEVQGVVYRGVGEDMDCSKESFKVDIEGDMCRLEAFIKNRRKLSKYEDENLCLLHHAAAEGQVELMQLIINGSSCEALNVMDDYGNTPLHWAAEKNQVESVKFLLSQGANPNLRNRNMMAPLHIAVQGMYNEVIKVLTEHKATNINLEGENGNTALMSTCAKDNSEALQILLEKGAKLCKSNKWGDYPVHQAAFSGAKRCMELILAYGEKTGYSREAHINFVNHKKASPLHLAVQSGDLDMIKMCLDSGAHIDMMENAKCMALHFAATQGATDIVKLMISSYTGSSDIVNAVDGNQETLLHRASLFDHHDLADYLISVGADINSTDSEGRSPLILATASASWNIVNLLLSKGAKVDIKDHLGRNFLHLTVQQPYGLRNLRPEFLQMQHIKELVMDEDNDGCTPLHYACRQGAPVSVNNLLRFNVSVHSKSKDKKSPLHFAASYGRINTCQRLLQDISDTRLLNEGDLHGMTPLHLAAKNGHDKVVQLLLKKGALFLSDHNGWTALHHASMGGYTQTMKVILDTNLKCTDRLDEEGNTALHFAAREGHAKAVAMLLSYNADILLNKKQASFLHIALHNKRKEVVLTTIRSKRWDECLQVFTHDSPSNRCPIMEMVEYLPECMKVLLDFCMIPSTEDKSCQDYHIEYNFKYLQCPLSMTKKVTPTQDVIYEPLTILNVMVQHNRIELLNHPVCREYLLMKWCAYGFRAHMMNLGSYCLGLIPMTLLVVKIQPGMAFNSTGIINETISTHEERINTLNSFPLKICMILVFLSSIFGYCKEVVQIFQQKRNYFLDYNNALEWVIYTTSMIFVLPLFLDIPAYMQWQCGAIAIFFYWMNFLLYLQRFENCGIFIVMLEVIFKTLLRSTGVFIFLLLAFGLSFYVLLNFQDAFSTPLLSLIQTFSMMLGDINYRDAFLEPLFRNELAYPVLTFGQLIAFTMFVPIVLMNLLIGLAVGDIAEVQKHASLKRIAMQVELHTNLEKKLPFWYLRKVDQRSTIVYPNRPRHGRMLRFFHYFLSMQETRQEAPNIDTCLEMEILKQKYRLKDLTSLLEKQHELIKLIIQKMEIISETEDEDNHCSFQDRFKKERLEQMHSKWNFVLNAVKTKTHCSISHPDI
TEST DETAILS: cell-based
Format: cell-based
# maps each entry to its TRPA1 Efficacy (%AITC 100μM)
READOUT NAME: TRPA1 Efficacy (%AITC 100μM) (%)

> print(dat)
                                   compound                              study.system  endpoint.result
1  CCCCCCC(C)(C)c1cc(OC)c(C2=C[C@H]3CC[C@]2(CO)C3(C)C)c(OC)c1 [HU910]  Rat recombinant TRPA1 (Rattus norvegicus, UniProt Q6RI86)             33.1
2  CN1CCCC[C@H]1Cn1cc(C(=O)c2cc([N+](=O)[O-])ccc2I)c2ccccc21 [(S)-AM1241]  Rat recombinant TRPA1 (Rattus norvegicus, UniProt Q6RI86)             47.5
3  CN1CCCC[C@@H]1Cn1cc(C(=O)c2cc([N+](=O)[O-])ccc2I)c2ccccc21 [(R)-AM1241]  Rat recombinant TRPA1 (Rattus norvegicus, UniProt Q6RI86)             19.8
4  Cc1c(C(=O)NN2CCCCC2)nn(-c2ccc(Cl)cc2Cl)c1-c1ccc(I)cc1 [AM251]  Rat recombinant TRPA1 (Rattus norvegicus, UniProt Q6RI86)             44.4
5  CCCCCCC(C)(C)c1cc(OC)c([C@@H]2C=C(CO)[C@@H]3C[C@H]2C3(C)C)c(OC)c1 [HU308]  Rat recombinant TRPA1 (Rattus norvegicus, UniProt Q6RI86)             43.1
